- Tested on: SF-268
- Assay info: NCI tumour cell line growth inhibition, 48 h
Active and inactive are the calls of the source. Cut-off read from the data, not from the text of the source: active = GI50 up to about 1.1 µM and inactive = higher.
Property: GI50

Provide GI50 for all items below, preserving their order.
1. Cc1cc(C)nc(NS(=O)(=O)c2ccc(NC(=O)c3cccc4c(Nc5ccc(S(=O)(=O)N=C(N)N)cc5)c5ccc(Cl)cc5nc34)cc2)n1
2. COc1cc(-c2oc3ccccc3c(=O)c2O)cc(OC)c1OC
3. CC(C)(C)OC(=O)N1CC(CCl)c2ccc(O)cc21 (stereo unspecified)
4. CCN(CC)CCNC(=O)c1cc2cc(NC(=O)c3cc4cc(NC(=O)c5cc6cc([N+](=O)[O-])ccc6[nH]5)ccc4[nH]3)ccc2[nH]1

1: 41 µM (inactive); 2: 11.7 µM (inactive); 3: 1.58 µM (inactive); 4: > 100 µM (inactive)

Provide GI50 for all items below, preserving their order.
1. CC(C)OC(=S)Nc1ccc(Cl)c(/C=N/OC(C)(C)C)c1
2. COc1ccc(/C=N/NS(=O)(=O)c2ccccc2)cc1
3. N#Cc1c(-c2ccc(Cl)cc2)cc(-c2ccc(Nc3ccnc4cc(C(F)(F)F)ccc34)cc2)nc1N

1: 19.3 µM (inactive); 2: > 100 µM (inactive); 3: 39.1 µM (inactive)

Provide GI50 for all items below, preserving their order.
1. Fc1ccc(C(OCCN2CCN(CCCCl)CC2)c2ccc(F)cc2)cc1
2. CSc1cc(Cl)c(C)cc1S(=O)(=O)NC(=O)NNc1cccc(C(F)(F)F)n1
3. COc1ccc(/C=C(\C#N)c2ccccn2)cc1OC
4. CO[C@]12C[C@H](CNC(=O)c3cc(Br)c(Br)[nH]3)O[C@H]1NC(=O)N2
5. OCCCCCNc1cc(O)nc(O)n1

24.5 µM (inactive)
> 100 µM (inactive)
33 µM (inactive)
> 100 µM (inactive)
> 100 µM (inactive)

Provide GI50 for all items below, preserving their order.
1. O=C(O)CSCC(=O)c1ccccc1
2. COC(=O)c1nc(-c2nc(CCNC(=O)OC(C)(C)C)sc2Cl)sc1Cl
3. OC1(c2ccc(Cl)cc2)c2ccc(CN3CCCC3)cc2C2=NCCN21 (stereo unspecified)
4. COc1ccc(C2OC(N)=C(C#N)C3=C2CCCC3C)cc1OC (stereo unspecified)
5. O=C1OCc2nc3c(c(-c4ccccc4C(F)(F)F)c21)C(=O)OC3

1: > 100 µM (inactive); 2: 74.6 µM (inactive); 3: 14.8 µM (inactive); 4: > 100 µM (inactive); 5: > 100 µM (inactive)

Provide GI50 for all items below, preserving their order.
1. COC(=O)[C@@H]1Cc2cc(O)c(O)cc2C2(CCN(C)CC2)O1
2. C=C(Cl)/C(=C/Cl)CCC(Br)C(C)(C)Cl.C=C(Cl)/C(=C\Cl)CCC(Br)C(C)(C)Cl (stereo unspecified)
3. CC(C)(C)N/N=C(\C(=O)Nc1nnc(S)[nH]1)C1C(=O)Nc2ccccc2[S+]1[O-] (stereo unspecified)
4. CCNc1cc2c3c(c1)CCN3CCC2

["> 10 µM (inactive)", "> 10 µM (inactive)", "> 100 µM (inactive)", "> 10 µM (inactive)"]
